# Tested on: Malme-3M
# assay.notes: NCI tumour cell line growth inhibition, 48 h
The source made the active and inactive calls. No stated cut-off is given here; in the data, active = GI50 up to about 1.1 µM and inactive = higher.
quantity: GI50

Problem: Bench note: what GI50 did `N#CN1CCC=C(c2cc3ccccc3[nH]2)C1` show?
Solution: 442 µM (inactive)

Problem: Bench note: what GI50 did `C/C(=N\Nc1nc2ccccc2o1)c1ccc2ccccc2n1` show?
Solution: 4.21 µM (inactive)

Problem: Bench note: what GI50 did N#CC(C(=O)c1ccccc1F)c1nc2cc(C(F)(F)F)ccc2s1 (stereo unspecified) show?
Solution: 19.6 µM (inactive)

Problem: Bench note: what GI50 did COC(=O)C(=O)C(C(=O)C(=O)Nc1nc2ccc(C)cc2s1)c1nc2ccc([N+](=O)[O-])cc2nc1O (stereo unspecified) show?
Solution: > 100 µM (inactive)

Problem: Bench note: what GI50 did `O=C1/C(=C/c2cccc([N+](=O)[O-])c2)COc2ccccc21` show?
Solution: 16.1 µM (inactive)

Problem: Bench note: what GI50 did CN1C(=O)C(O)CC1c1ccc(C(F)(F)F)cc1 (stereo unspecified) show?
Solution: > 100 µM (inactive)

---

Give measured GI50 for each item. Keep answers brief.
# Tested on: TK-10
# assay.notes: NCI tumour cell line growth inhibition, 48 h
Calls of active or inactive are those of the source. No stated cut-off is given here; in the data, active = GI50 up to about 1.1 µM and inactive = higher.

Problem: For the record CC1(C)CC(=O)C(CC(C(=O)C(=O)Nc2cc(C(F)(F)F)ccc2Cl)C(=O)c2ccco2)C(=O)C1 (stereo not given) , what value of GI50 is listed for TK-10?
Solution: > 100 µM (inactive)

Problem: For the record `O=C1/C(=C/c2ccccc2S)N=C(c2ccccc2)N1c1nc2ccc(Sc3ccccc3)cc2[nH]1` , what value of GI50 is listed for TK-10?
Solution: 27 µM (inactive)

Problem: For the record CN(C)C1(N(C)C)Oc2c(c(=O)n(C)c(=O)n2C)C(c2ccc(C(F)(F)F)cc2)C1(F)F (stereo not given) , what value of GI50 is listed for TK-10?
Solution: > 100 µM (inactive)

Problem: For the record `CC1=CCC[C@H]2[C@](C)(CC3=CC(=O)C(SCC(C)C)=CC3=O)[C@@H](C)CC[C@]12C` , what value of GI50 is listed for TK-10?
Solution: 16.7 µM (inactive)

Problem: For the record `O=[N+]([O-])c1ccc(O)c(/C=N/c2nc(-c3ccccc3)cs2)c1` , what value of GI50 is listed for TK-10?
Solution: 42.5 µM (inactive)

---

# Tested on: XF498
# assay.notes: NCI tumour cell line growth inhibition, 48 h
Activity calls are given as the source filed them. Cut-off read from the data, not from the text of the source: active = GI50 up to about 1.1 µM and inactive = higher.
quantity: GI50

Problem: Bench note: what GI50 did `CN(C)c1ccc(O[Si](Oc2ccc(N(C)C)cc2)(Oc2ccc(N(C)C)cc2)Oc2ccc(N(C)C)cc2)cc1` show?
Solution: 44.4 µM (inactive)

Problem: Bench note: what GI50 did `COc1ccc(OC)c2[nH]c(Sc3c([N+](=O)[O-])ncn3C)nc12` show?
Solution: 17.3 µM (inactive)

Problem: Bench note: what GI50 did `Cc1ccc2nc(/C(=C/c3ccc(/C=C(\NC(=O)c4ccccc4)c4nc5ccc(C)cc5[nH]4)c(C)c3)NC(=O)c3ccccc3)[nH]c2c1` show?
Solution: 3.76 µM (inactive)

Problem: Bench note: what GI50 did `CC(=O)CCn1[nH]c(=O)c(Cl)c(Cl)c1=O` show?
Solution: > 100 µM (inactive)

Problem: Bench note: what GI50 did CC1=C2C(O)C(C(C)C(=O)NCC(C)C)CCC2(C)C=CC1=O (stereo not given) show?
Solution: > 100 µM (inactive)

Reference for the values: ChEMBL document CHEMBL1201862
